Source of measurements: the array DNA melting data of Ke et al. (doi:10.1101/2024.01.08.574731)

- ASSAY OVERVIEW: melting temperature; fluorescence melt of hairpins on a sequencing array, two-state fit, raised by 9.35 °C to match UV melts
- COND: sodium 0.088 M
RECORDED METRIC: Tm (°C)
Record the value in °C, omitting the unit from your answer.

Before answering, review these 3 worked examples.
Need Tm of GCCCCCGAAAGGGAGGGC ((((((....)))..))) , thanks.
59.8

Need Tm of GCTCTTCGAAAGAAAGC (((.(((....)))))) , thanks.
36.1

Need Tm of GTCGTAGGAAACTATGGC (.(.(((....))).).) , thanks.
32

More entries:
Need Tm of GGGGAAGGAAACTCCCCC ((((.((....)).)))) , thanks.
46.9

Need Tm of GTATGCGAAAGCACTTAC ((((((....)))..))) , thanks.
35.1

Need Tm of GGGCACGGAAACGTGTCC ((.((((....)))).)) , thanks.
63.4

Need Tm of GGTTTTGGAAACAAAACC (((((((....))))))) , thanks.
58.6

Need Tm of GCGCTTCCGAAAGGACGC (((..(((....)))))) , thanks.
52

Need Tm of GCACCGCGAAAGCGACGC ((..(((....)))..)) , thanks.
47.2

Need Tm of GTGCTAGGAAACCAGCAC (((((.(....).))))) , thanks.
49.9

Need Tm of GCAATGGGAAACCATCGC ((.((((....)))).)) , thanks.
42.1

Need Tm of GATCTCCATTGAGATC ((((((....)))))) , thanks.
52.3

Need Tm of GACTCCACGAAAGTGGTC (((..(((....)))))) , thanks.
29.5

Need Tm of GCTCGTCGAAAGACAAGC (((.(((....))).))) , thanks.
49.5

Need Tm of GACACGGGAAACCGCATC ((..(((....)))..)) , thanks.
20.4

Need Tm of GATCTTGGAAACAAGACC (.(((((....))))).) , thanks.
35.2

Need Tm of GCCGGGCGAAAGCTCCGC ((.(.((....)).).)) , thanks.
45.2

Need Tm of GGTCTTGAAAAAGACC ((((((....)))))) , thanks.
57.2

Need Tm of GCGCGGCGAAAGCGGAGC ((.(.((....)).).)) , thanks.
60.4

Need Tm of GACTCCGAAAGGAATGTC ((((((....)))..))) , thanks.
38.6

Need Tm of GATCATAAAAATGATC ((((((....)))))) , thanks.
36.8

Need Tm of GCGTGGCGAAAGCGAGGC ((.(.((....)).).)) , thanks.
51.1

Need Tm of GTGATCGAAAGATCACAC ((((((....)))..))) , thanks.
67.3

Need Tm of GTTAACCGAAAGGTCAAC (((.(((....))).))) , thanks.
37.7

Need Tm of GTATGCGAAAGCATAC ((((((....)))))) , thanks.
69.2

Need Tm of GCGACCGAAAGGTGCGC ((((((....))).))) , thanks.
67.1

Need Tm of GCCGGGGGAAACCCCAGC ((.((((....)))).)) , thanks.
50.3

Need Tm of GGATCGGGAAACTGGTCC (((.(.(....).).))) , thanks.
39.2

Need Tm of GTACGTCGAAAGACTTAC (((.(((....))).))) , thanks.
39.3

Need Tm of GATCCCCGTCGGGATC ((((((....)))))) , thanks.
62.8

Need Tm of GAAGGGCGAAAGCCATTC (((.(((....))).))) , thanks.
57.1

Need Tm of GCGCAGGGAAACCTACGC (((.(((....))).))) , thanks.
50.1

Need Tm of GATAGGAAACTATC (((((....))))) , thanks.
40.2

Need Tm of GCAAGTGGAAACACTCGC ((.((((....)))).)) , thanks.
44.3

Need Tm of GTGCCTCCGAAAGGACAC (((..(((....)))))) , thanks.
52.4

Need Tm of GTAACGGGAAACCGCTAC (((.(((....))).))) , thanks.
39.9
